# System: Surinam grass (Brachiaria decumbens)
# run description: Test B pre-/postemergence plant response
# Type: in vivo
# protocol conditions: 31 g ai/ha, postemergence; scale 0 to 100, 0 is no effect, 100 is complete control
assay readout: Plant response rating, Surinam Grass
Please respond with just the number, no unit label.

The examples below pair each entry with its known result.
>>> print(df.to_string())
                                   molecule                      target_or_system                         assay_readout  meas_value
0  O=C1CCCC(O)=C1C(=O)c1cnc(-c2cccs2)n(-c2ccccc2)c1=O [Compound 66]  Surinam grass (Brachiaria decumbens)  Plant response rating, Surinam Grass          65
1  O=C1CCCC(O)=C1C(=O)c1cnc(-c2ccccc2)n(C2CC2)c1=O [Compound 90]  Surinam grass (Brachiaria decumbens)  Plant response rating, Surinam Grass          65
2  O=C1CCCC(O)=C1C(=O)c1cnc(C2CC2)n(-c2ccccc2)c1=O [Compound 87]  Surinam grass (Brachiaria decumbens)  Plant response rating, Surinam Grass          75
3  CCCCc1ncc(C(=O)C2=C(O)CCCC2=O)c(=O)n1-c1ccccc1C [Compound 62]  Surinam grass (Brachiaria decumbens)  Plant response rating, Surinam Grass          20

Enquiry: Specify measured Plant response rating, Surinam Grass for CCCCn1c(CCC)ncc(C(=O)C2=C(O)CCCC2=O)c1=O [Compound 75] .
Return: 50

Enquiry: Identify Plant response rating, Surinam Grass associated with the molecule CC(C)Cc1ncc(C(=O)C2=C(O)CCCC2=O)c(=O)n1-c1ccccc1 [Compound 68]
Return: 25

* * *

// reported Morningglory plant response rating (0 to 100 scale) for each item listed
# System: morningglory (Ipomoea coccinea)
# run description: Test B pre-/postemergence plant response
# Assay type: in vivo
# protocol conditions: 62 g ai/ha, postemergence; 0 is no effect, 100 is complete control; 13 to 15 days
# Excerpt: […] Treated plants and controls were maintained in a greenhouse for 13 to 15 days, after which time all treated plants were visually evaluated and compared to controls. […]

Some solved entries appear below for comparison.
                                   compound  meas_value
0  O=C1CCCC(O)=C1C(=O)c1cnc(-c2cccnc2)n(-c2ccccc2)c1=O         100
1  O=C1CCCC(O)=C1C(=O)c1cnc(-c2ccc(Br)cc2)n(-c2ccccc2)c1=O         100
2  O=C1CCCC(O)=C1C(=O)c1cnc(-c2ccccc2)n(C2CCOCC2)c1=O          90
3  COCCOCCn1c(-c2ccccc2)ncc(C(=O)C2=C(O)CCCC2=O)c1=O          90

Here is the next item to consider.
Enquiry: Kindly indicate its recorded Morningglory plant response rating (0 to 100 scale). Item: O=C1CCCC(O)=C1C(=O)c1cnc(-c2ccsc2)n(CC2CCCO2)c1=O (centres unmarked)
Return: 85

* * *

# Test system: wheat (Triticum aestivum)
# run description: Test A pre-/postemergence plant response
# Type: in vivo
# protocol conditions: Preemergence, 500 g ai/ha; 0 to 100 scale, 0 = no effect, 100 = complete control
Threshold check on Plant response rating, Wheat: strictly below 20 is rule met; on or above 20 is rule not met.

For orientation, consider the following solved cases.
                                   molecule         class
0  O=C1CCCC(O)=C1C(=O)c1cnc(-c2ccccc2)n(C2CC[S+]([O-])CC2)c1=O (mixture of isomers)      rule met
1  CCCCn1c(C2CC2)ncc(C(=O)C2=C(O)CCCC2=O)c1=O  rule not met
2  CCCn1c(-c2cc(F)cc(F)c2)ncc(C(=O)C2=C(O)CC(C)(C)CC2=O)c1=O  rule not met
3  Cc1cccc(-c2ncc(C(=O)C3=C(O)CCCC3=O)c(=O)n2-c2cc(F)ccc2C)c1      rule met
4  CCc1cccc(-n2c(-c3ccccc3)ncc(C(=O)C3=C(O)CCCC3=O)c2=O)c1      rule met

Enquiry: Bench note: check whether O=C(C1=C(O)C2CCC(C2)C1=O)c1cnc(-c2ccccc2)n(CC2CCCO2)c1=O (centres unmarked) shows Plant response rating, Wheat below 20
Return: rule met

Enquiry: Quick check: Plant response rating, Wheat of Cc1ccc(-n2c(-c3cc(F)cc(F)c3)ncc(C(=O)C3=C(O)CCCC3=O)c2=O)cc1 under 20?
Return: rule not met

Enquiry: Please let me know if O=C1CCCC(O)=C1C(=O)c1cnc(-c2cc(F)cc(F)c2)n(CC2CCCCC2)c1=O shows Plant response rating, Wheat below 20.
Return: rule met

Enquiry: Consider CCCCn1c(-c2cccc(C)c2)ncc(C(=O)C2=C(O)C3CCC(C3)C2=O)c1=O (centres unmarked) . Does its Plant response rating, Wheat lie strictly below 20?
Return: rule not met

Enquiry: Identify whether the molecule CCCn1c(-c2cccc(C)c2)ncc(C(=O)C2=C(O)CCCC2=O)c1=O records Plant response rating, Wheat below 20.
Return: rule met

* * *

# Test system: quackgrass (Elytrigia repens)
# run description: Test D pre-/postemergence plant response
# Format: in vivo
# protocol conditions: Postemergence, 125 g ai/ha; scale 0 to 100 (0 no effect, 100 complete control)
assay readout: Plant response rating, Quackgrass

Enquiry: Determine reported Plant response rating, Quackgrass for O=C1CCCC(O)=C1C(=O)c1cnc(-c2ccccc2)n(C2CCCCC2)c1=O ; test system: quackgrass (Elytrigia repens).
Return: 5

Enquiry: Report Plant response rating, Quackgrass on quackgrass (Elytrigia repens) for this entry: COCCCn1c(-c2cc(F)cc(F)c2)ncc(C(=O)C2=C(O)C3CCC(C3)C2=O)c1=O (stereo not shown)
Return: 50

Enquiry: Using quackgrass (Elytrigia repens) as the test system, report measured Plant response rating, Quackgrass of Cc1c(F)cccc1-n1c(-c2ccccc2)ncc(C(=O)C2=C(O)CCCC2=O)c1=O .
Return: 5

Enquiry: Give Plant response rating, Quackgrass only, for Cc1ccc(F)c(-n2c(-c3ccccc3)ncc(C(=O)C3=C(O)CCCC3=O)c2=O)c1 , using quackgrass (Elytrigia repens) data.
Return: 0

* * *

# System: sandbur (southern sandbur, Cenchrus echinatus)
# run description: Test D pre-/postemergence plant response
# Type: in vivo
# protocol conditions: Postemergence, 31 g ai/ha; scale 0 to 100
Plant response rating, Sandbur listing for selected molecules.
Returns: the value as a bare number; no unit string appended.

Some entries whose results are on file:
                                   molecule                          target_or_system  meas_value
0  CCCCn1c(-c2ccccc2)ncc(C(=O)C2=C(O)C3CCC(C3)C2=O)c1=O (stereo not shown)  sandbur (southern sandbur, Cenchrus echinatus)          70
1  Cc1ccc(F)c(-n2c(-c3ccccc3)ncc(C(=O)C3=C(O)CCCC3=O)c2=O)c1  sandbur (southern sandbur, Cenchrus echinatus)          25
2  O=C1CCCC(O)=C1C(=O)c1cnc(C2CC2)n(-c2ccccc2)c1=O  sandbur (southern sandbur, Cenchrus echinatus)           5

Lab note: next molecule to report on.
Enquiry: Read the entry O=C1CCCC(O)=C1C(=O)c1cnc(-c2cccs2)n(-c2ccccc2)c1=O and write its reported Plant response rating, Sandbur.
Return: 35

* * *

# Test system: lambsquarters (Chenopodium album)
# run description: Test B pre-/postemergence plant response
# Assay type: in vivo
# protocol conditions: Postemergence, 125 g ai/ha; scale 0 to 100 (0 no effect, 100 complete control)
# Text: […] Treated plants and controls were maintained in a greenhouse for 13 to 15 days, after which time all treated plants were visually evaluated and compared to controls. […]
List of Plant response rating, Lambsquarters values.
Would you mind answering with just the numeric figure?

Enquiry: // fetch Plant response rating, Lambsquarters given entry Cc1ccc(-n2c(-c3cc(F)cc(F)c3)ncc(C(=O)C3=C(O)CCCC3=O)c2=O)cc1
Return: 98

Enquiry: Look up and state reported Plant response rating, Lambsquarters for CCCn1c(-c2ccccc2)ncc(C(=O)C2=C(O)C3CCC(C3)C2=O)c1=O (centres unmarked)
Return: 95

Enquiry: Given COCCCn1c(-c2cccc(F)c2)ncc(C(=O)C2=C(O)CCCC2=O)c1=O , respond with its Plant response rating, Lambsquarters.
Return: 85

Enquiry: For CCCCn1c(C2CC2)ncc(C(=O)C2=C(O)CCCC2=O)c1=O , write its Plant response rating, Lambsquarters.
Return: 98

Enquiry: Tell me Plant response rating, Lambsquarters reported for O=C1CCCC(O)=C1C(=O)c1cnc(-c2ccccc2)n(C2CCOCC2)c1=O
Return: 95

* * *

# Test system: barnyardgrass (Echinochloa crus-galli)
# run description: Test D pre-/postemergence plant response
# Format: in vivo
# protocol conditions: Preemergence, 62 g ai/ha; scale 0 to 100
# Lookup of reported Plant response rating, Barnyardgrass keyed by entry

Worked examples follow.
                              line_notation  meas_value
0  O=C1CCCC(O)=C1C(=O)c1cnc(C2CC2)n(-c2ccccc2)c1=O          50
1  Cc1c(F)cccc1-n1c(-c2ccccc2)ncc(C(=O)C2=C(O)CCCC2=O)c1=O           5
2  O=C1CCCC(O)=C1C(=O)c1cnc(-c2cccnc2)n(-c2ccccc2)c1=O           0

Query compound follows.
Enquiry: Let me know recorded Plant response rating, Barnyardgrass for O=C1CCCC(O)=C1C(=O)c1cnc(-c2cccs2)n(-c2ccccc2)c1=O , thanks.
Return: 5
